# Tested on: DLD-1 colon
# assay_overview: NCI tumour cell line growth inhibition, 48 h
# maps each entry to its TGI

Solved cases (5 shown):
CSc1nc(CO)c(CO)n1C    > 100 µM
CC[C@]12C=CCN3CCC4(c5cc([C@@]6(C(=O)OC)CC7CN(CCc8c6[nH]c6ccccc86)C[C@@H]6CCCC[C@H]76)c(OC)cc5N(C)C4[C@](O)(C(=O)OC)C1OC(C)=O)[C@@H]32 (some centres undefined)    13.8 µM
O=C(OCCCl)C1OC(n2cc(F)c(=O)[nH]c2=O)CC1O (centres undefined)    > 100 µM
CSc1nc2nn(Cc3ccccc3)cc2c(=O)[nH]1    > 100 µM
Cc1[nH]c(=O)[nH]c(=O)c1/C=C/C(=O)NC(CO)CS(=O)CS(C)=O (centres undefined)    253 µM

Any idea what TGI came out for O=C(NC(Cc1ccc(Br)cc1)C(=O)O)c1ccc(I)cc1 (centres undefined) on DLD-1 colon? > 100 µM

Any idea what TGI came out for CN/C=C(\C(=O)c1ccc(OC)c(OC)c1)c1ccc(OC)cc1 on DLD-1 colon? 31.7 µM

Any idea what TGI came out for COC(=O)c1ncc2c(=O)[nH]c3ccccc3c2c1C(=O)OC on DLD-1 colon? > 100 µM

Any idea what TGI came out for OCC[N+]12CCCN1CCC2 on DLD-1 colon? > 100 µM

Any idea what TGI came out for CC(=O)OCCOCNC(=S)N/N=C/c1cc([N+](=O)[O-])ccc1O on DLD-1 colon? > 100 µM

Any idea what TGI came out for CC[C@@]1(O)C(=O)OCc2c1cc1n(c2=O)Cc2cc3ccccc3nc2-1 on DLD-1 colon? 25.7 µM

Any idea what TGI came out for COc1cccc(/C=C/C(=O)c2sc(C(N)=S)nc2C)c1O on DLD-1 colon? > 68.5 µM

Any idea what TGI came out for O=C(Cc1nc2ccccc2o1)C(=O)Nc1cccc(Cl)c1 on DLD-1 colon? > 100 µM

Any idea what TGI came out for CCC1C(C(=O)Nc2ccccc2C)=C(C)NC(C)=C1c1ccccc1C (centres undefined) on DLD-1 colon? > 59.7 µM

Any idea what TGI came out for Cc1ccc(/C=C(\NC(=O)c2ccccc2)c2nc3ccccc3[nH]2)cc1 on DLD-1 colon? > 100 µM

Any idea what TGI came out for O=C1Cc2nc(CO)c(CO)c(CO)c2CO1 on DLD-1 colon? > 100 µM

Any idea what TGI came out for CC(C)(C)C(=O)Nc1cccc2oc(-c3ccccc3)cc12 on DLD-1 colon? > 100 µM

Any idea what TGI came out for COc1ccc(-c2nc3c(nc2-c2ccc(OC)cc2)C(N)=NS(=O)(=O)N3)cc1 on DLD-1 colon? > 100 µM

Any idea what TGI came out for CN(C)CCC(CCN(C)C)=NO on DLD-1 colon? > 100 µM

Any idea what TGI came out for COc1cc(/C=C2\CCC/C(=C\c3ccc(O)c(OC)c3)C2=O)ccc1O on DLD-1 colon? 3.38 µM

Any idea what TGI came out for CC1C(=O)CC(c2cccs2)N(N=O)C1c1cccs1 (centres undefined) on DLD-1 colon? > 100 µM

Any idea what TGI came out for COc1ccc(C2ON(c3ccccc3)CC=C2C)cc1 (centres undefined) on DLD-1 colon? > 100 µM

Any idea what TGI came out for O=c1[nH]c(=O)n(C2CC(O)C(CO)O2)cc1C(F)(C(F)(F)F)C(F)(F)F (centres undefined) on DLD-1 colon? > 100 µM

Any idea what TGI came out for Nc1ccc(O)c2c1C(=O)c1c(N)ccc(O)c1C2=O on DLD-1 colon? > 100 µM
